Test Details: counter-screen for M1 agonists: effect in parental CHO-K1 cells (AID 602248);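 also: untransfected CHO-K1 host cells lacking M1 receptor as counterscreen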
Condition Summary: Fluo-8 calcium fluorescence, at 3 µM
Out of some 360,000 compounds screened, about 1,700 (0.47%) were called active. Rule as the data show it: active = activation above about 15%; inactive = the rest. The list comes from a sample in which actives are over-represented; it also holds close analogues and randomly drawn compounds.
Possible outcomes: active, inactive

>  <Molecule>
N=c1ccccn1Cc1ccccc1

>  <Class Name>
active

$$$$
>  <Molecule>
CN(C)C(=O)Oc1ccc(OCc2cccc[n+]2C)cc1

>  <Class Name>
inactive

$$$$
>  <Molecule>
O=C(COC(=O)c1ccccc1)Nc1ccc(Cl)cc1C(=O)c1ccccc1

>  <Class Name>
inactive

$$$$
>  <Molecule>
CNC(=O)Nc1ccc(C(O)(C(=O)OC)C(F)(F)F)cc1 (stereo not given)

>  <Class Name>
inactive

$$$$
>  <Molecule>
CCOC(=O)CC1=C(C(=O)OCC)C2(C(=O)N1)C(C(=O)OC)=C(N)Oc1ccccc12 (stereo not given)

>  <Class Name>
inactive

$$$$
>  <Molecule>
O=C(CCNS(=O)(=O)c1ccccc1)Nc1ccc(Cl)cc1C(=O)c1ccccc1

>  <Class Name>
active

$$$$
>  <Molecule>
CCN1CCN(c2nc3c(c(=O)[nH]2)CCC3)CC1

>  <Class Name>
inactive

$$$$
>  <Molecule>
CN1CCN(C(=S)SCC(=O)Nc2ccc(Cl)cc2C(=O)c2ccccc2)CC1

>  <Class Name>
inactive

$$$$
>  <Molecule>
CC1=C2C(=O)C3C(CC=C4CC(OC5OC(O)C(O)C(O)C5CO)CCC43C)C2CCC12OC1CC(C)CNC1C2C (stereo not given)

>  <Class Name>
inactive

$$$$
>  <Molecule>
O=C1NC(=O)C(CCc2ccccn2)(Cc2cccc(Cl)c2Cl)C(=O)N1c1ccc(Br)cc1 (stereo not given)

>  <Class Name>
inactive

$$$$
